# assay_target: BSA (Bos taurus, UniProt P02769)
# Sequence (P02769 25-607): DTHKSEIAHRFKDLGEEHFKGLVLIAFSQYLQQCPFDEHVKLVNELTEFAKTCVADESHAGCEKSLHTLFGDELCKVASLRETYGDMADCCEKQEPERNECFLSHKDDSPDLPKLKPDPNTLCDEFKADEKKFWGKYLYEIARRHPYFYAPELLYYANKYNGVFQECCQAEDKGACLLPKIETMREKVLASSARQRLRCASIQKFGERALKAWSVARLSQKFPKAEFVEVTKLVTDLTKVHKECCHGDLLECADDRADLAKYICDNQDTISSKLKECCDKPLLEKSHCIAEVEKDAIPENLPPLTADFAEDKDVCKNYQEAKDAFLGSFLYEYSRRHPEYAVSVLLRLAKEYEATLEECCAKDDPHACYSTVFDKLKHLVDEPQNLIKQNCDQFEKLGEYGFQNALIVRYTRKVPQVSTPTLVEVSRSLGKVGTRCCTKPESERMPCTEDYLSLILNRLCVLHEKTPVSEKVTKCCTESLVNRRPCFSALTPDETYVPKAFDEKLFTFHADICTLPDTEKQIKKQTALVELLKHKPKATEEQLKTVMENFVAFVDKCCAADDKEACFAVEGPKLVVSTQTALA
# protocol_description: LSTDLPF-based Kd determination with fluorescence detection, BSA/fluorescein
# Format: binding, bovine
# measurement_conditions: triplicate experiment on three different days, error = SD of the three experiments, read-out: global Kd
measure: pKd
# pKd = -log10(concentration in molar units)

Suppose we examine the compound O=C1OC2(c3ccc(O)cc3Oc3cc(O)ccc32)c2ccccc21 ; what pKd value has been reported?
4.70

###

# assay_target: BSA (Bos taurus, UniProt P02769)
# protocol_description: LSTDLPF-MS (APCI mass-spectrometry detection) Kd determination, BSA/fluorescein
# Assay type: binding, bovine
# measurement_conditions: after 2-step screening compensation, first experiment (FIG. 14C), [fluorescein]0=200 nM, read-out: Kd
measure: Kd (µM)
Express it in µM; write the number only.

Suppose we examine the molecule O=C1OC2(c3ccc(O)cc3Oc3cc(O)ccc32)c2ccccc21 [fluorescein] ; what Kd value has been reported?
32
